B1: PI4K2A (parent)
chain: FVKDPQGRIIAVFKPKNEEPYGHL

- Variants of: B1
- protocol.summary: protein stability index of a GFP-peptide fusion (GPS, HEK-293T) (PSI 1-6); higher = more stable;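 note: lentivirally expressed fusions sorted by FACS into six bins by GFP to DsRed ratio, PSI derived from sequencing read proportions per bin multiplied by bin number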
- assay.conditions: c terminus: a fixed tail appended
value.type: protein stability index
# print the numeric value only

The following variants have reported results that may help.
# changes, protein stability index
data = [
    ("N17R", 1.3),
    ("Q6G", 1.92),
    ("K3P", 1.91),
]

Consider the additional variant presented here.
So what does the record say about protein stability index for I10D ?
1.97
